Target: BlaC (Mycobacterium tuberculosis, UniProt P9WKD3)
Construct: made in house; host or cells: E. coli
Sequence (P9WKD3 35-307): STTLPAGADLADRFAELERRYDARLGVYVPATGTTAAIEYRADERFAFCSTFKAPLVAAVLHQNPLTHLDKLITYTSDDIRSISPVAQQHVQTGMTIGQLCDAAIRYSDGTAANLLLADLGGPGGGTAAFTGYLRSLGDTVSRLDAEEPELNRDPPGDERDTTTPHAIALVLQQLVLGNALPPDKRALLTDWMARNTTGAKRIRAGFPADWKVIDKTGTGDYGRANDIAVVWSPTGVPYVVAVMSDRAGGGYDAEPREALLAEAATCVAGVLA
Experiment: BlaC fluorogenic inhibition assay with FC5 (dose-response)
Format: biochemical
Settings: Table S4 HTS validation; 30 minutes inhibitor pre-incubation; n=8; read-out: pIC50 BlaC (mean ± SD) (converted)
Method: Two types of controls were used. […] In control 2, the BlaC mixture was substituted with the assay buffer. This mixture was incubated for 30 minutes at room temperature without shaking. […] Data were analysed using ActivityBase (IDBS).
For each of the compounds below, state its IC50.
One number for each entry, in µM.

Take a look at these entries with their results.
COMPOUND: C[C@@H](O)[C@H]1C(=O)N2C(C(=O)O)=C(S[C@@H]3CN[C@H](C(=O)N(C)C)C3)[C@H](C)[C@H]12 [Meropenem, reference compound]
IC50 [µM]: 0.0407
//
COMPOUND: O=C(NNC(=O)[C@@H]1CC[C@@H]2CN1C(=O)N2OS(=O)(=O)O)[C@@H]1CCCNC1 [Zidebactam, reference compound]
IC50 [µM]: 7.24
//
COMPOUND: O=C(NC1CCNCC1)[C@@H]1CC[C@@H]2CN1C(=O)N2OS(=O)(=O)O
IC50 [µM]: 3.98

Input: Specify reported IC50 for the compound shown: CC1(C)S[C@@H]2[C@H](NC(=O)[C@H](C(=O)O)c3ccsc3)C(=O)N2[C@H]1C(=O)O [Ticarcillin, reference compound]
Output: 14.5

Source: paper PMC10321483
